- procedure_summary: A CellTox Green Cytotoxicity Assay to monitor cytotoxicity in HepG2 cells - 16 hour (AID 1224876); further: nearly all actives have a fitted effect of over 45% in size
- cond: CellTox Green fluorescence; series mostly up to 76.8 µM
Inconclusive results are not listed. Active and inactive are the calls of the source. The call rests on the fitted dose curve; in most records, active means well fitted activation curve with a large enough effect in the repeat runs; inconclusive means weak or mixed curves; inactive means flat fitted curve, though single readings scatter.
Tick one outcome: active, inactive

Check out these entries, answers already filled in.
[[record]]
molecule = "CCCCCCCCCCCCCCC[C@H](O)[C@@H](N)CO"
group = "active"

[[record]]
molecule = "CO[Si](C)(OC)OC"
group = "inactive"

[[record]]
molecule = "COCCOC(=O)C1=C(C)NC(C)=C(C(=O)OC/C=C/c2ccccc2)C1c1cccc([N+](=O)[O-])c1 (configuration not stated)"
group = "inactive"

[[record]]
molecule = "COC(OC)(C(=O)c1ccccc1)c1ccccc1"
group = "inactive"

[[record]]
molecule = "CCn1nc(C)c2c1C(=O)NCC(c1ccc(O)cc1)=N2"
group = "inactive"


Request: So what was the verdict on CN1CCN(CCCN2c3ccccc3Sc3ccc(S(=O)(=O)N(C)C)cc32)CC1 in this test?
Response: active

Request: So what was the verdict on Fc1c(F)c(F)c(Br)c(F)c1F in this test?
Response: inactive

Request: So what was the verdict on O=C(O)C(Cc1cc(I)c(O)c(I)c1)c1ccccc1 (configuration not stated) in this test?
Response: inactive

Request: So what was the verdict on Cc1c(C(=O)NN2CCCCC2)nn(-c2ccc(Cl)cc2Cl)c1-c1ccc(Cl)cc1 in this test?
Response: inactive

Request: So what was the verdict on C=CCOC(=O)/C=C\C(=O)OCC=C in this test?
Response: inactive

Request: So what was the verdict on O=C1NCCN1 in this test?
Response: inactive

Request: So what was the verdict on CC1=C(/C=C/C(C)=C\C=C\C(C)=C\C(=O)O)C(C)(C)CCC1 in this test?
Response: inactive
